- experimental.details: Selectivity index, ratio CC50 for human HEL cells to EC50 for Human cytomegalovirus Davis
- Type: toxicity, cell-based
- condition.parameters: read-out: Ratio CC50/EC50
readout.type: selectivity ratio
In your answer, state the number alone without any accompanying words.

[
  {
    "molecule": "Nc1ccn(C[C@@H](CO)OCP(=O)(O)O)c(=O)n1",
    "selectivity ratio": 195
  }
]

Pending molecule:
Sure, the documented selectivity ratio for CC(CP(=O)(O)O)OCCn1cnc2c(N)ncnc21 (configuration not stated) is 14

====

- experimental.details: Selectivity index, ratio CC50 for human HEL cells to EC50 for Varicella-zoster virus strain OKA expressing thymidine kinase
- Format: toxicity, cell-based
- condition.parameters: read-out: Ratio CC50/EC50
Entries and their selectivity ratio values follow.
Answer with a number only.

So, CC(CP(=O)(O)O)OCCn1cnc2c(N)ncnc21 (configuration not stated) ? Its selectivity ratio was 120

Briefly, selectivity ratio measured for "Nc1ccn(C[C@@H](CO)OCP(=O)(O)O)c(=O)n1" : 880

====

- Test system: Human alphaherpesvirus 2
- experimental.details: Antiviral activity against Herpes simplex virus 2 strain G assessed as reduction of virus induced cytopathicity by cell based assay
- Type: functional, organism-based
Active and inactive are the calls of the source. No cut-off for these calls is given here.
readout.type: Activity

Solved entries (count: 5):
[
  {
    "molecule": "O=c1ccn(CCOC(CO)CP(=O)(O)O)c(=O)[nH]1 (stereo unspecified)",
    "Activity": "inactive"
  },
  {
    "molecule": "Nc1ncnc2c1ncn2CCOC(COCc1ccccc1)CP(=O)(O)O (stereo unspecified)",
    "Activity": "inactive"
  },
  {
    "molecule": "Cc1cn(CCOC(CO)CP(=O)(O)O)c(=O)[nH]c1=O (stereo unspecified)",
    "Activity": "inactive"
  },
  {
    "molecule": "CC(CP(=O)(O)O)OCCn1cnc2c(N)nc(N)nc21 (stereo unspecified)",
    "Activity": "inactive"
  },
  {
    "molecule": "O=c1[nH]cnc2c1ncn2CCOC(COCc1ccccc1)CP(=O)(O)O (stereo unspecified)",
    "Activity": "inactive"
  }
]

Field: next molecule
response.value for Nc1ncnc2c1ncn2CCOC(CO)CP(=O)(O)O (stereo unspecified) (field: Activity) = inactive

====

- experimental.details: Selectivity index, ratio CC50 for human HEL cells to EC50 for Human cytomegalovirus strain AD169
- Type: toxicity, cell-based
- condition.parameters: read-out: Ratio CC50/EC50
readout.type: selectivity ratio
When you answer, write just the number.

[
  {
    "molecule": "CC(CP(=O)(O)O)OCCn1cnc2c(N)ncnc21 (configuration not stated)",
    "selectivity ratio": 14
  }
]

// next entry
According to the records, this molecule "Nc1ccn(C[C@@H](CO)OCP(=O)(O)O)c(=O)n1" displays selectivity ratio of 195

====

- System: HEL
- experimental.details: Cytotoxicity against human HEL cells after 3 days by coulter counter
- Type: cell-based
- condition.parameters: 72 h
Could you please mark Yes for values of CC50 below 300 µM and No for values at or above it?

Some solved cases for reference:
[
  {
    "compound": "O=c1[nH]cnc2c1ncn2CCOC(CO)CP(=O)(O)O (configuration not stated)",
    "assigned.class": "No"
  },
  {
    "compound": "CC(CP(=O)(O)O)OCCn1cnc2c(N)ncnc21 (configuration not stated)",
    "assigned.class": "Yes"
  },
  {
    "compound": "Nc1nc(O)c2ncn(COC(CO)CO)c2n1",
    "assigned.class": "No"
  },
  {
    "compound": "Nc1ccn(C[C@@H](CO)OCP(=O)(O)O)c(=O)n1",
    "assigned.class": "Yes"
  },
  {
    "compound": "Cc1cn(CCOC(C)CP(=O)(O)O)c(=O)[nH]c1=O (configuration not stated)",
    "assigned.class": "No"
  }
]

Problem: Please check: CC50 for "Nc1nc2c(ncn2COCCO)c(=O)[nH]1" , strictly under 300 µM or not?
Result: No

Problem: Does CCC(CP(=O)(O)O)OCCn1cnc2c(N)ncnc21 (configuration not stated) have CC50 strictly under 300 µM?
Result: No
